pKi: −log10 of the molar value.
For reference, the following pKi results for Melatonin receptor type 1A (Homo sapiens) were taken from various sources.
Label fulfilled when pKi is at or above 7; anything below gets not fulfilled.

In: Reported pKi reaches at least 7 for CC(=O)NCCc1cccc2ccc(OCCCCOc3ccc4cc(C(C)C(=O)O)ccc4c3)cc12 (configuration not stated) ?
Out: fulfilled

In: Subsequent entry: COc1ccc2c(CN3CCN(c4cccc(Cl)c4)CC3)cn(CCNC(C)=O)c2n1
Out: not fulfilled

In: Subsequent entry: COc1ccccc1OC(C)CNC(C)=O (configuration not stated)
Out: not fulfilled

In: Subsequent entry: CC(=O)NCCc1cccc2ccc(OCCCCOc3ccc(-c4ccc(C(=O)O)cc4)cc3)cc12
Out: fulfilled

In: Subsequent entry: CNC(=S)NCCc1cccc2ccc(OC)nc12
Out: fulfilled

In: Subsequent entry: COc1ccc2ccc(OC)c3c2c1CCC3CNC(=O)C1CC1 (configuration not stated)
Out: fulfilled

In: Subsequent entry: CCC(=O)NCC1CCc2ccccc2N1CC(=O)NC (racemic)
Out: not fulfilled

In: Subsequent entry: CCCC(=O)Nc1ccc(N(C)c2cccc(OC)c2)cc1
Out: fulfilled

In: Subsequent entry: COc1ccc2[nH]c(CN3Cc4ccccc4C3)c(CCNC(C)=O)c2c1
Out: not fulfilled

In: Subsequent entry: CNC(=O)N[C@H]1CCN(c2cccc3c2CCO3)C1
Out: fulfilled

In: Subsequent entry: COc1ccc(OCCc2ccccc2)c(CCCNC(C)=O)c1
Out: not fulfilled

In: Subsequent entry: COc1ccc2[nH]c(Cn3ccc4ccccc43)c(CCNC(=O)C3CCC3)c2c1
Out: fulfilled

In: Subsequent entry: COc1cc2cccc(/C=C/c3n[nH]c(=O)o3)c2cc1OC
Out: not fulfilled

In: Subsequent entry: CC(C)C(=O)NCCCc1cccc2nc(CCCCc3ccccc3)oc12
Out: fulfilled

In: Subsequent entry: CC(=O)NC/C(=C/c1ccccc1)c1ccccc1
Out: not fulfilled

In: Subsequent entry: CCC(=O)NCCC1CCc2c(OC)ccc3ccc(OC)c1c23 (configuration not stated)
Out: fulfilled

In: Subsequent entry: COC(=O)Cc1cccc2ccc(OCCCCOc3ccc4cccc(CCNC(C)=O)c4c3)cc12
Out: fulfilled

In: Subsequent entry: CCC(=O)NCC1CCc2ccccc2N1Cc1ccccc1 (racemic)
Out: fulfilled

In: Subsequent entry: COc1ccc(SCCNC(C)=O)cc1
Out: not fulfilled

In: Subsequent entry: CCNC(=S)NCCc1cccc2ccc(OC)nc12
Out: fulfilled

In: Subsequent entry: CC(C)C1=C(CCNC(=O)C(F)(F)F)c2c(ccc3c2CCO3)C1
Out: fulfilled

In: Subsequent entry: COc1ccc2cccc(CCNC(N)=O)c2n1
Out: fulfilled

In: Subsequent entry: CCC(=O)NCCCc1cccc2nc(CCCCc3ccccc3)oc12
Out: fulfilled

In: Subsequent entry: CCC(=O)NCC1=C(c2ccccc2)c2ccccc2CC1
Out: fulfilled

In: Subsequent entry: COc1ccc2cccc3c2c1C(CCNC(C)=O)CC3 (configuration not stated)
Out: fulfilled

In: Subsequent entry: COc1ccc(Cc2oc3ccc(OC)cc3c2CCNC(C)=O)cc1
Out: fulfilled

In: Subsequent entry: COc1cnc2cccc(CCNC(C)=O)c2c1
Out: fulfilled

In: Subsequent entry: CCNC(=O)NCC1CCc2ccccc2N1C (racemic)
Out: fulfilled

In: Subsequent entry: O=C(NCC1CCc2ccccc2N1Cc1ccccc1)C1CCC1 (racemic)
Out: not fulfilled

In: Subsequent entry: COc1cccc(N(CCCCCCCCCCN(CCNC(C)=O)c2cccc(OC)c2)CCNC(C)=O)c1
Out: not fulfilled

In: Subsequent entry: CCC(=O)NCC1CCc2c(OC)cccc2N1Cc1ccccc1 (racemic)
Out: fulfilled

In: Subsequent entry: COc1ccc2ccc(OC)c3c2c1CCC3CCNC(=O)C1CC1 (configuration not stated)
Out: fulfilled

In: Subsequent entry: CC(=O)NCCN(C)c1cccc(OCCCCCCN)c1
Out: not fulfilled

In: Subsequent entry: COc1ccc2[nH]cc(Cc3n[nH]c(=O)n3C)c2c1
Out: not fulfilled

In: Subsequent entry: CC(=O)NCCCc1cccc2nc(C)oc12
Out: fulfilled

In: Subsequent entry: CCC(=O)NCCc1c(OCCN(C)C)ccc2ccc(OC)cc12
Out: fulfilled

In: Subsequent entry: CC(=O)NCC1Cc2ccccc2N(Cc2ccccc2)C1 (racemic)
Out: fulfilled

In: Subsequent entry: CCC(=O)NCC(Cc1ccccc1)c1cccc(OC)c1 (configuration not stated)
Out: not fulfilled

In: Subsequent entry: COc1ccc2[nH]cc(CCNC(=O)CCCCCCCCC(=O)NCCc3c[nH]c4ccc(OC)cc34)c2c1
Out: not fulfilled

In: Subsequent entry: O=C(NCCc1c(-c2ccccc2)[nH]c2ccccc12)C1CCC1
Out: not fulfilled

In: Subsequent entry: CC(C)C(=O)NC[C@@H]1C[C@H]1c1cccc2nc(C(C)C)oc12
Out: fulfilled

In: Subsequent entry: CC(=O)N[C@H]1CCN(c2cccc3c2CCO3)C1
Out: fulfilled
